Where do the numbers come from? From patent US11840526B2.

# measurementNotes: Powder characteristics (Carr index, anti-caking property, fluidity) by intelligent powder comprehensive characteristic tester
# Format: physicochemical
# experimentalConditions: solid form of compound 1; smaller value = better fluidity, more than 23% generally indicates poor fluidity
# Protocol: The performance of the drug powder is influenced by various factors, among which the fluidity, anti-caking property and the like of the starting material drug (i.e., active pharmaceutical ingredient) play a key role in the formulation design, the quality control, the process design, the industrial production and the like of the drug. […] Similarly, the fluidity of the fumarate salt solid form of compound 1 prepared in the above Examples 28-29 and Comparative Example 3 was measured.
reportedEndpoint: Carr index (%)

[
  {
    "compound": "Cn1cnc(Cn2c(=O)[nH]/c(=N\\c3cc4cn(C)nc4cc3Cl)n(Cc3cc(F)c(F)cc3F)c2=O)n1 [Example 1]",
    "Carr index (%)": 21.4
  },
  {
    "compound": "Cn1cnc(Cn2c(=O)[nH]/c(=N\\c3cc4cn(C)nc4cc3Cl)n(Cc3cc(F)c(F)cc3F)c2=O)n1 [Example 12]",
    "Carr index (%)": 15.1
  },
  {
    "compound": "Cn1cnc(Cn2c(=O)[nH]/c(=N\\c3cc4cn(C)nc4cc3Cl)n(Cc3cc(F)c(F)cc3F)c2=O)n1 [Example 4]",
    "Carr index (%)": 19.4
  },
  {
    "compound": "Cn1cnc(Cn2c(=O)[nH]/c(=N\\c3cc4cn(C)nc4cc3Cl)n(Cc3cc(F)c(F)cc3F)c2=O)n1 [Example 6]",
    "Carr index (%)": 18.5
  },
  {
    "compound": "Cn1cnc(Cn2c(=O)[nH]/c(=N\\c3cc4cn(C)nc4cc3Cl)n(Cc3cc(F)c(F)cc3F)c2=O)n1 [Example 8]",
    "Carr index (%)": 21.2
  }
]

(a) Cn1cnc(Cn2c(=O)[nH]/c(=N\c3cc4cn(C)nc4cc3Cl)n(Cc3cc(F)c(F)cc3F)c2=O)n1 [Example 5]
(b) Cn1cnc(Cn2c(=O)[nH]/c(=N\c3cc4cn(C)nc4cc3Cl)n(Cc3cc(F)c(F)cc3F)c2=O)n1 [Example 9]
Exercise: Name the one with the greater Carr index (%) value, either a or b as given. Please identify the chosen entry by its label.
Solution: a

---

# measurementNotes: Powder characteristics (Carr index, anti-caking property, fluidity) by intelligent powder comprehensive characteristic tester
# Format: physicochemical
# experimentalConditions: solid form of compound 1; smaller value = better fluidity, more than 23% generally indicates poor fluidity
reportedEndpoint: Carr index (%)

[
  {
    "compound": "Cn1cnc(Cn2c(=O)[nH]/c(=N\\c3cc4cn(C)nc4cc3Cl)n(Cc3cc(F)c(F)cc3F)c2=O)n1 [Comparative Example 1, reference compound]",
    "reportedEndpoint": "Carr index (%)",
    "measuredResult": 42.1
  }
]

(1) Cn1cnc(Cn2c(=O)[nH]/c(=N\c3cc4cn(C)nc4cc3Cl)n(Cc3cc(F)c(F)cc3F)c2=O)n1 [Example 7]
(2) Cn1cnc(Cn2c(=O)[nH]/c(=N\c3cc4cn(C)nc4cc3Cl)n(Cc3cc(F)c(F)cc3F)c2=O)n1 [Comparative Example 2, reference compound]
Exercise: Name the one with the greater Carr index (%) value, either 1 or 2 as given. Please identify the chosen entry by its label.
Solution: 2
